Each entry below carries its recorded self-cleavage.
B1: Hairpin Ribozyme (parent)
chain: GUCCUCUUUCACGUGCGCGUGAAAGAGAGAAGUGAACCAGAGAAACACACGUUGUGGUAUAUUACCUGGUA

- Variants of: B1
- measurement description: self-cleavage, relative activity (ratio to wild type); higher = more cleavage; co-transcriptional
// keep it numeric: no unit symbol after the value

Please review the entries below; each comes with its answer.
>  <sequence text>
GUCCUCUUUCACGUGCGCGAGAAAGAGAGAAGUGAGCCAGAGAAACACACGUUGUGGUAUAUUACCUGGUA

>  <number>
0.858

$$$$
>  <sequence text>
GUCCUCUUUCACAUGCGCGUGACAGAGAGAAGUGAACCAGAGAAACACACGUUGUGGUAUAUUACCUGGUA

>  <number>
0.571

$$$$
>  <sequence text>
CUCCUCUUUCACGUGCGCGUGAAAGAGAGAAGCGAACCAGAGAAACACACGUUGUGGUAUAUUACCUGGUA

>  <number>
0.134

$$$$
>  <sequence text>
GUCCUCUUUCACGUGCGCGUGAAAGAGCGAAGUGAACCAGAGAAACACACGUUGUGGUGUAUUACCUGGUA

>  <number>
0.117

$$$$
>  <sequence text>
GUCCUCUUUCACGUGCGCGUGAAAGAGAGAAGUGAAUCAGAGAAACACACGGUGUGGUAUAUUACCUGGUA

>  <number>
0.527

$$$$

What self-cleavage value was documented for this variant, GUCCUCUUUCACGUGCGCGUGAGAGAGAGAAGUGAACCAGAGAAACACGCGUUGUGGUAUAUUACCUGGUA ?
0.426

What self-cleavage value was documented for this variant, GUCCUCUUUCACCUGCGCGUGAAAGAGAGAAGUGAACAAGAGAAACACACGUUGUGGUAUAUUACCUGGUA ?
0.2

What self-cleavage value was documented for this variant, CUCUUCUUUCACGUGCGCGUGAAAGAGAGAAGUGAACCAGAGAAACACACGUUGUGGUAUAUUACCUGGUA ?
0.228

What self-cleavage value was documented for this variant, GUCCUCUUUCACGUGCGCGUGAAAGAGAGAAGGGAACCAGAGAAACACACGUUGUGGUAAAUUACCUGGUA ?
0.0846

What self-cleavage value was documented for this variant, GUCCUCUUUCACGUGCGCGUGAAAGAGACAAGUGAACCAGAGAAACACACGUUGUGGUACAUUACCUGGUA ?
0.164

What self-cleavage value was documented for this variant, GUCCUCUUUCACGUGCGCGUGAAAGAGAGAAGUGAACCAGAGAAACACACGUUGUGUUAUAUUACCAGGUA ?
0.166

What self-cleavage value was documented for this variant, GUCCUCUUUCACGUGAGCGUGAAAGAGAGAAGUGAGCCAGAGAAACACACGUUGUGGUAUAUUACCUGGUA ?
1.1

What self-cleavage value was documented for this variant, GUCCUCUUUCACGUGCGAGUGAAAGAGAGAAGUGAACCAGAGAAACACACGUUCUGGUAUAUUACCUGGUA ?
0.395

What self-cleavage value was documented for this variant, GUCCUCUUUCACGUGCGCGUGAAAGAGAGAAGUGAACCAGAUAAACACACAUUGUGGUAUAUUACCUGGUA ?
0.191

What self-cleavage value was documented for this variant, GACCUCUUUCACGUGCGCGUGAAAGAGAGAAGUGAACCAGAGAAACACACGUUGUGGUAUAGUACCUGGUA ?
0.088

What self-cleavage value was documented for this variant, GUCCUCUUUCACGUGCGCGUGAAAGAGAGAAGUGAACCUGAGAAACACACGUUGUGGUAUAUUACUUGGUA ?
0.213

What self-cleavage value was documented for this variant, GUCCUCUUUCACGUGCGCGUGAAAGAGAGCAGUGAACCAGAGAAACACACGUCGUGGUAUAUUACCUGGUA ?
0.203

What self-cleavage value was documented for this variant, GUCCUCUUUCACGUGCGCGUGAAAGAAACAAGUGAACCAGAGAAACACACGUUGUGGUAUAUUACCUGGUA ?
0.12

What self-cleavage value was documented for this variant, GUCCUCUUUCACGUGCGCGUGAAAGAGAGAAGUGAACCAUAAAAACACACGUUGUGGUAUAUUACCUGGUA ?
0.202

What self-cleavage value was documented for this variant, GUCCUCUUUCACGUGCGCGUGAAAGAGAGAAGUGAACCAGAGAAACACUCUUUGUGGUAUAUUACCUGGUA ?
0.135

What self-cleavage value was documented for this variant, GUCCGCUUUCACGUGCGCGUGAAAGAGAGAAGUGAACCAGAGAAACACACGUUGGGGUAUAUUACCUGGUA ?
0.2

What self-cleavage value was documented for this variant, GUCCUCUUUCACGUGCGCGUGAAAGAGAGAAGUGAACCAGAGACACACACGUUGUGGUAUAUUACCUGGUC ?
0.323
